# Subject Of Test: Serine/threonine-protein kinase B-raf (Homo sapiens, UniProt P15056, V600E)
# Sequence (P15056 2-766 V600E limits assumed): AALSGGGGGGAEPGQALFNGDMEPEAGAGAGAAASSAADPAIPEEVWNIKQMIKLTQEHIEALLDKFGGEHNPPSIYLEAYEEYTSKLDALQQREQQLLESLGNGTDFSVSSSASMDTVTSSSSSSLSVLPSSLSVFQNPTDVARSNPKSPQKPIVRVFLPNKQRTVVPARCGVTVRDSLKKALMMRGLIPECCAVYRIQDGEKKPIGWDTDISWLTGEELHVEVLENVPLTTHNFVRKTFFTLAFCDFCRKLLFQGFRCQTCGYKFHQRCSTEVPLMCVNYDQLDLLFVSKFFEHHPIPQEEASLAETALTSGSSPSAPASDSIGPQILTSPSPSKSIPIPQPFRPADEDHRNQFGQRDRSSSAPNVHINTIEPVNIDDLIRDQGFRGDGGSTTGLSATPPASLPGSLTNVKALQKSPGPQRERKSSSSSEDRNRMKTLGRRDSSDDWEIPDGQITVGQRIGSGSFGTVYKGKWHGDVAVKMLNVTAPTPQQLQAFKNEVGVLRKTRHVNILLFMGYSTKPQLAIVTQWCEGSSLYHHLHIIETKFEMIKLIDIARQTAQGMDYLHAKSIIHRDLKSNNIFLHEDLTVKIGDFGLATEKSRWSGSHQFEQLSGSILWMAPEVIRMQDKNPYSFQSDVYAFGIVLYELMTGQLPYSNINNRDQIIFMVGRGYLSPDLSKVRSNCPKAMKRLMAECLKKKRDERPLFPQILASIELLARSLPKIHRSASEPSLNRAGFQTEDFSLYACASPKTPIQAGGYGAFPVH
# Assay Explanation: Inhibition of human 6x-His tagged BRAF V600E mutant expressed in Sf9 cells by ELISA based kinase assay
Result Type: IC50 (nM)

Molecule | Result Type | Display Unit | Observed Result
O=S(=O)(Nc1cc(Cl)c(O)c2ccccc12)c1cccs1 | IC50 | nM | 380
O=S(=O)(Nc1cc(Sc2ncn[nH]2)c(O)c2ccccc12)c1c(F)ccc(N(Cc2ccccc2)Cc2ccccc2)c1F | IC50 | nM | 3600
CCCCCCCCS(=O)(=O)Nc1cc(Sc2nnc[nH]2)c(O)c2ccccc12 | IC50 | nM | 720
O=S(=O)(Nc1cc(Sc2ccccn2)c(O)c2ccccc12)c1cccs1 | IC50 | nM | 190
COc1cc(C(Nc2ccccn2)c2cc(Cl)c3cccnc3c2O)cc(Br)c1O (centres undefined) | IC50 | nM | 700
O=S(=O)(Nc1cc(Br)c(O)c2ccccc12)c1cccs1 | IC50 | nM | 320
O=S(=O)(Nc1cc(Sc2nc[nH]n2)c(O)c2ccccc12)c1ccc(C(F)(F)F)cc1 | IC50 | nM | 210
O=C1CCC(=O)N1c1ccc(F)c(S(=O)(=O)Nc2cc(Sc3ncn[nH]3)c(O)c3ccccc23)c1F | IC50 | nM | 670
CC(=O)N1CCc2cc(S(=O)(=O)Nc3cc(Sc4nc[nH]n4)c(O)c4ccccc34)ccc21 | IC50 | nM | 140

====

# Subject Of Test: Serine/threonine-protein kinase B-raf (Homo sapiens, UniProt P15056, V600E)
# Assay Explanation: Inhibition of human 6x-His tagged BRAF V600E mutant expressed in Sf9 cells by ELISA based kinase assay

Structure As Smiles | IC50 (nM)
CCCCCCCCCCS(=O)(=O)Nc1cc(Sc2nnc[nH]2)c(O)c2ccccc12 | 1600
O=S(=O)(Nc1cc(Sc2nnc[nH]2)c(O)c2ccccc12)c1ccc(-c2ccccc2)cc1 | 80
Cn1nnnc1Sc1cc(NS(=O)(=O)c2cccs2)c2ccccc2c1O | 250
CC(=O)Nc1ccc(S(=O)(=O)Nc2cc(Sc3nc[nH]n3)c(O)c3ccccc23)cc1 | 140

====

# Subject Of Test: Serine/threonine-protein kinase B-raf (Homo sapiens, UniProt P15056, V600E)
# Assay Explanation: Inhibition of human 6x-His tagged BRAF V600E mutant expressed in Sf9 cells by ELISA based kinase assay
pIC50: −log10 of the molar value.
pIC50 reference

Compound | Subject Of Test | pIC50
O=S(=O)(Nc1cc(Sc2ncn[nH]2)c(O)c2ccccc12)c1c(F)c(F)c(F)c(F)c1F | Serine/threonine-protein kinase B-raf (Homo sapiens, UniProt P15056, V600E) | 6.28
O=S(=O)(Nc1cc(Sc2ccccc2)c(O)c2ccccc12)c1cccs1 | Serine/threonine-protein kinase B-raf (Homo sapiens, UniProt P15056, V600E) | 6.55
O=S(=O)(Nc1cc(Sc2cnn[nH]2)c(O)c2ccccc12)c1cccs1 | Serine/threonine-protein kinase B-raf (Homo sapiens, UniProt P15056, V600E) | 6.14
O=S(=O)(Nc1cc(Sc2ncc[nH]2)c(O)c2ccccc12)c1cccs1 | Serine/threonine-protein kinase B-raf (Homo sapiens, UniProt P15056, V600E) | 6.92
COc1ccc(C(c2ccc3cccnc3c2O)N2CCOCC2)cc1 (stereo not given) | Serine/threonine-protein kinase B-raf (Homo sapiens, UniProt P15056, V600E) | 6.05
